- Tested on: Pseudomonas aeruginosa ATCC 27853
- PROTOCOL SUMMARY: MIC, broth macrodilution (CLSI), P. aeruginosa ATCC 27853
- Type: cell-based
Would you mind telling me the reported Minimal Inhibitory Concentration (MIC) of each entry?

## Task Write down Minimal Inhibitory Concentration (MIC) measured for item NC[C@H]1O[C@H](O[C@H]2[C@H](O)[C@@H](O[C@H]3O[C@H](CO)[C@@H](O)[C@H](N)[C@H]3O)[C@H](N)C[C@@H]2N)[C@H](O)[C@@H](O)[C@@H]1O [Kanamycin A, reference compound]
## Result >512 µg/mL

## Task Write down Minimal Inhibitory Concentration (MIC) measured for item NCC1OC(OC2C(N)CC(N)C(OCc3ccc(Cl)cc3)C2OC2OC(COCc3ccc(Cl)cc3)C(OC3OC(CN)C(OCc4ccc(Cl)cc4)C(OCc4ccc(Cl)cc4)C3N)C2OCc2ccc(Cl)cc2)C(N)C(OCc2ccc(Cl)cc2)C1OCc1ccc(Cl)cc1.O=C(O)C(F)(F)F.O=C(O)C(F)(F)F.O=C(O)C(F)(F)F.O=C(O)C(F)(F)F.O=C(O)C(F)(F)F.O=C(O)C(F)(F)F (stereo not drawn)
## Result >128 µg/mL

## Task Write down Minimal Inhibitory Concentration (MIC) measured for item NCC1OC(OC2C(N)CC(N)C(OCc3ccccc3)C2OC2OC(COCc3ccccc3)C(OC3OC(CN)C(OCc4ccccc4)C(OCc4ccccc4)C3N)C2OCc2ccccc2)C(N)C(OCc2ccccc2)C1OCc1ccccc1.O=C(O)C(F)(F)F.O=C(O)C(F)(F)F.O=C(O)C(F)(F)F.O=C(O)C(F)(F)F.O=C(O)C(F)(F)F.O=C(O)C(F)(F)F (stereo not drawn)
## Result 32 µg/mL

* * *

- Tested on: Pseudomonas aeruginosa ATCC 27853
- PROTOCOL SUMMARY: MIC, broth macrodilution (CLSI), P. aeruginosa ATCC 27853
- Type: cell-based
Would you mind telling me the reported Minimal Inhibitory Concentration (MIC) of each entry?
// units = µg/mL; emit number, no label

## Task Write down Minimal Inhibitory Concentration (MIC) measured for item NC[C@@H]1O[C@H](O[C@H]2[C@@H](O)[C@H](O[C@@H]3[C@@H](O)[C@H](N)C[C@H](N)[C@H]3O[C@H]3O[C@H](CN)[C@@H](O)[C@H](O)[C@H]3N)O[C@@H]2CO)[C@H](N)[C@@H](O)[C@@H]1O [Neomycin B, reference compound]
## Result 512

## Task Write down Minimal Inhibitory Concentration (MIC) measured for item CCCCCCNC(=O)OCC1OC(OC2C(NC(=O)C(CCN)OC(=O)NCCCCCC)CC(N)C(OC3OC(CN)C(OC(=O)NCCCCCC)C(OC(=O)NCCCCCC)C3OC(=O)NCCCCCC)C2OC(=O)NCCCCCC)C(OC(=O)NCCCCCC)C(N)C1OC(=O)NCCCCCC.O=C(O)C(F)(F)F.O=C(O)C(F)(F)F.O=C(O)C(F)(F)F.O=C(O)C(F)(F)F (stereo not shown)
## Result 64

## Task Write down Minimal Inhibitory Concentration (MIC) measured for item CC(C)(C)c1ccc(COCC2OC(OC3C(OCc4ccc(C(C)(C)C)cc4)C(N)CC(N)C3OC3OC(CN)C(OCc4ccc(C(C)(C)C)cc4)C(OCc4ccc(C(C)(C)C)cc4)C3N)C(OCc3ccc(C(C)(C)C)cc3)C2OC2OC(CN)C(OCc3ccc(C(C)(C)C)cc3)C(OCc3ccc(C(C)(C)C)cc3)C2N)cc1.O=C(O)C(F)(F)F.O=C(O)C(F)(F)F.O=C(O)C(F)(F)F.O=C(O)C(F)(F)F.O=C(O)C(F)(F)F.O=C(O)C(F)(F)F (stereo not shown)
## Result 256
